- assay-procedure: Absorption spectra of dye alone
- Type: physicochemical
- details: TE Buffer, 8 μM dye; in M-1·cm-1 (unit assumed)
Listed here: items and their measured ε.
readout-type: ε

* CCN1c2cc3[o+]c(N(C)CCCN(C)C)cc(/C=C4\Sc5ccccc5N4C)c3cc2C(C)=CC1(C)C | 28,355
* CCN(CC)c1ccc2c(c1)O/C(=C\c1cc(N(C)CCCN(C)C)[o+]c3cc(N(CC)CC)ccc13)C=C2C | 25,013
* CCN(CC)c1ccc2c(/C=C3\Sc4ccccc4N3C)cc(N3CC[N+](C)(CCO)CC3)[o+]c2c1 | 65,269
* CCN(CC)c1ccc2c(/C=C3\Sc4ccccc4N3C)cc(N(C)CCC[N+](C)(C)C)[o+]c2c1 | 16,940
* CCN(CC)c1ccc2c(C=C3Oc4ccccc4N3CC)cc(C(C)(C)C)[o+]c2c1 | 35,925
* CCN(CC)c1ccc2c(/C=C3\Sc4ccccc4N3C)cc(N(C)CCCN(C)C)[o+]c2c1 | 39,987
* CN1C(=Cc2cc[n+](C)c3ccccc23)Sc2ccccc21 [TO, Thiazole Orange, reference compound] | 52,773
* CCN(CC)c1ccc2c(/C=C3\Oc4ccccc4N3CC)cc(-c3ccccc3)[o+]c2c1 | 20,444
* CCN(CCCN(C)C)c1ccc2c(/C=C3\Sc4ccccc4N3CC)cc(C(C)(C)C)[o+]c2c1 | 37,365
* CCCN(CCCN(C)C)C1=C/C(=C\c2sc3ccccc3[n+]2C)c2ccccc2N1c1ccccc1 [SYBR Green, reference compound] | 73,000
* CCN(CC)c1ccc2c(C=C3Sc4ccccc4N3CC)cc(C(C)(C)C)[o+]c2c1 | 46,625
